- System: Spodoptera litura
- measurementProtocol: Pesticidal activity against Spodoptera litura, leaf-dipping method
- Assay type: in vivo
- conditionSummary: 48 h, read-out: mortality rate against Spodoptera litura
reportedProperty: mortality at 100 ppm

compound="O=C(c1ccc(C2=NOC(c3cc(Cl)cc(C(F)(F)F)c3)(C(F)(F)F)C2)c2ccccc12)N(CCF)C(=O)C1CC1 (stereo not drawn) [Synthesis Example 17]" result="≥ 80%"
compound="Cc1cc(C2=NOC(c3cc(Cl)cc(C(F)(F)F)c3)(C(F)(F)F)C2)ccc1C(=O)NC(=O)C1(C)CC1 (stereo not drawn) [Synthesis Example 25]" result="≥ 80%"
compound="Cc1cc(C2=NOC(c3cc(Cl)cc(C(F)(F)F)c3)(C(F)(F)F)C2)ccc1C(=O)NC(=O)C1CCC1 (stereo not drawn) [Synthesis Example 33]" result="≥ 80%"

* * *

- System: Spodoptera litura
- measurementProtocol: Pesticidal activity against Spodoptera litura, leaf-dipping method
- Assay type: in vivo
- conditionSummary: 48 h, read-out: mortality rate against Spodoptera litura
Collected mortality at 100 ppm values appear next to each entry.
reportedProperty: mortality at 100 ppm

compound="Cc1cc(C2=NOC(c3cc(Cl)cc(Cl)c3)(C(F)(F)F)C2)ccc1C(=O)NC(=O)C1CCCC1 (stereo not shown) [Synthesis Example 68]" reportedproperty="mortality at 100 ppm" result="≥ 80%"
compound="O=C(NC(=O)C1CC1)c1ccc(C2=NOC(c3cc(Cl)cc(C(F)(F)F)c3)(C(F)(F)F)C2)cc1Br (stereo not shown) [Synthesis Example 8]" reportedproperty="mortality at 100 ppm" result="≥ 80%"
compound="Cc1cc(C2=NOC(c3cc(Cl)cc(Cl)c3)(C(F)(F)F)C2)ccc1C(=O)NC(=O)C1CC1(F)F (stereo not shown) [Synthesis Example 50]" reportedproperty="mortality at 100 ppm" result="≥ 80%"
compound="C/C=C/C(=O)NC(=O)c1ccc(C2=NOC(c3cc(Cl)cc(C(F)(F)F)c3)(C(F)(F)F)C2)cc1C (stereo not shown) [Synthesis Example 71]" reportedproperty="mortality at 100 ppm" result="≥ 80%"
compound="Cc1cc(C2=NOC(c3cc(Cl)cc(C(F)(F)F)c3)(C(F)(F)F)C2)ccc1C(=O)N(C(=O)C1CC1)C(=O)C1CC1 (stereo not shown) [Synthesis Example 22]" reportedproperty="mortality at 100 ppm" result="≥ 80%"
compound="Cc1cc(C2=NOC(c3cc(Cl)cc(Cl)c3)(C(F)(F)F)C2)ccc1C(=O)NC(=O)C1CC12CCC2 (stereo not shown) [Synthesis Example 52]" reportedproperty="mortality at 100 ppm" result="≥ 80%"
compound="Cc1cc(C2=NOC(c3cc(Cl)cc(Cl)c3)(C(F)(F)F)C2)ccc1C(=O)NC(=O)c1cn(C)nc1C(F)F (stereo not shown) [Synthesis Example 45]" reportedproperty="mortality at 100 ppm" result="≥ 80%"
compound="Cc1cc(C2=NOC(c3cc(Cl)cc(Cl)c3)(C(F)(F)F)C2)ccc1C(=O)NC(=O)c1cn(C)nc1C(F)(F)F (stereo not shown) [Synthesis Example 47]" reportedproperty="mortality at 100 ppm" result="≥ 80%"
compound="Cn1cc(C(=O)NC(=O)c2ccc(C3=NOC(c4cc(Cl)cc(Cl)c4)(C(F)(F)F)C3)c3ccccc23)c(C(F)F)n1 (stereo not shown) [Synthesis Example 46]" reportedproperty="mortality at 100 ppm" result="≥ 80%"
compound="CC(C)=CC(=O)NC(=O)c1ccc(C2=NOC(c3cc(Cl)cc(C(F)(F)F)c3)(C(F)(F)F)C2)cc1C (stereo not shown) [Synthesis Example 70]" reportedproperty="mortality at 100 ppm" result="≥ 80%"
compound="CCN(C(=O)c1ccc(C2=NOC(c3cc(Cl)cc(C(F)(F)F)c3)(C(F)(F)F)C2)cc1C)C(=O)C1CC1 (stereo not shown) [Synthesis Example 19]" reportedproperty="mortality at 100 ppm" result="≥ 80%"
compound="Cc1cc(C2=NOC(c3cc(Cl)cc(C(F)(F)F)c3)(C(F)(F)F)C2)ccc1C(=O)NC(=O)C1CCCO1 (stereo not shown) [Synthesis Example 85]" reportedproperty="mortality at 100 ppm" result="≥ 80%"
compound="C/C=C/C=C/C(=O)NC(=O)c1ccc(C2=NOC(c3cc(Cl)cc(C(F)(F)F)c3)(C(F)(F)F)C2)cc1C (stereo not shown) [Synthesis Example 72]" reportedproperty="mortality at 100 ppm" result="≥ 80%"

This collection of values is drawn from patent US20250380697A1.
